Tested on: Trypanosoma cruzi amastigotes (Tulahuen strain) cultured in 3T3 fibroblast cells
Assay: Assay for proliferation of kinetoplastid parasite Trypanosoma cruzi
Format: cell-based
Conditions: 144 h, Tulahuen amastigotes in 3T3 fibroblast cells, 6 day incubation, read-out: T cruzi EC50
Description: Assay for Proliferation of Kinetoplastid Parasite Trypanosoma cruzi. Compounds of the invention can be assayed to measure their capacity to inhibit proliferation of kinetoplastid parasite Trypanosoma cruzi. The screening procedure is for identifying compounds with inhibitor activity against Trypanosoma cruzi amastigotes cultured in 3T3 fibroblast cells. […] This allows for a colorimetric readout by using the substrate CPRG and an absorbance plate reader. […]
REPORTED METRIC: pEC50
Quick note: pEC50 means taking -log10 of the concentration in moles per liter.

# count of solved cases: 2
- COc1cccc(C(=O)Nc2ccc(Cl)c(-c3nc4ncc(C)cc4[nH]3)c2)c1: 5.59
- Cc1cnc2nc(-c3cc(NC(=O)OC4CCCC4)ccc3Cl)[nH]c2c1: 5.67

As a next step, examine the molecule that follows.
### Prompt What value of pEC50 has been recorded for this entry: Cc1cnc2nc(-c3cc(NC(=O)OC(C)C)ccc3Cl)[nH]c2c1
### Response 6.15
